# cond: buffer; pH 7.4; 6.0 h; 150.0 µM
measured attribute: solubility kinetic (µg/mL)
Note: unit µg/mL is implicit; provide only the numeric part.

Problem: Suppose we examine the molecule "Cc1cc(-c2nnc3n2CCCCC3)c(C)n1-c1cccnc1" ; what solubility kinetic value has been reported?
Solution: 32.5

Problem: Suppose we examine the molecule "COC(=O)[C@]12CCC(C)(C)C[C@H]1[C@H]1C(=O)C=C3[C@@]4(C)C=C(C#N)C(=O)C(C)(C)[C@@H]4CC[C@@]3(C)[C@]1(C)CC2" ; what solubility kinetic value has been reported?
Solution: 1.99

Problem: Suppose we examine the molecule "CS(=O)(=O)c1ccc(-c2csc(N3CCC(C(N)=O)CC3)n2)cc1" ; what solubility kinetic value has been reported?
Solution: 7.22

Problem: Suppose we examine the molecule CC(C)OC(=O)c1ccnc2cc(C(OCCN3CCCCC3)c3ccccc3Cl)sc12 (stereo not given) ; what solubility kinetic value has been reported?
Solution: 16.6

Problem: Suppose we examine the molecule "CN(C)c1cccc(-c2nc(N3CCC(C(N)=O)CC3)ncc2F)c1" ; what solubility kinetic value has been reported?
Solution: 42.6
